system: Saccharomyces cerevisiae; experiment: protein stability index of tFT-peptide fusion (C-terminal peptide) (PSI (0-1 scale)); higher = more stable (slower turnover); settings: genetic background: wild type; temperature: 30 C;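 note: PSI is a weighted mean of sequencing reads over stability bins, variants kept only with over 10 reads, mCherry proximal and sfGFP distal, peptide attached via GGGS linker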
ASSAY READOUT: protein stability index

Past entries and their recorded results:
SEQUENCE ENTRY	protein stability index
LMGDRRLFSFSV	0.719
YPPLTNNQINES	0.69
NLRFLFFSSSRF	0.682
SSCVSDKLLKNG	0.695
PSRASGPYPRLS	0.701
NRGGRKAINENG	0.685

get_value(item= `KNPSLSSPLPHP` , readout=protein stability index) returns 0.691

get_value(item= `KEKYEQIDIGKN` , readout=protein stability index) returns 0.719

---

system: Saccharomyces cerevisiae; assay: protein stability index of tFT-peptide fusion (C-terminal peptide) (PSI (0-1 scale)); higher = more stable (slower turnover); details: genetic background: wild type; temperature: 37 C
Each item that follows carries a reported protein stability index.
Reply: number alone, nothing else.

SEQUENCE ENTRY	ASSAY READOUT	RECORDED VALUE
FWFSFSFLCHSY	protein stability index	0.407
LISGVCLRVKVG	protein stability index	0.364
SGLPLVILFLCL	protein stability index	0.576
GRWLYSACVALN	protein stability index	0.403
VCFFLFWCLSFS	protein stability index	0.476
ATAVMILCFRWC	protein stability index	0.471
RYRVRIVVFGLV	protein stability index	0.0807
LLLLRCLWISHA	protein stability index	0.258
SGRATSSRTSEP	protein stability index	0.704
VNRRCWISRTLP	protein stability index	0.289

Entry `IGWGGGTWVKMG` ; assay system Saccharomyces cerevisiae; protein stability index recorded at 0.166

Entry `RVCVFVLFGLCF` ; assay system Saccharomyces cerevisiae; protein stability index recorded at 0.441

Entry `AVPTSPYSLIVY` ; assay system Saccharomyces cerevisiae; protein stability index recorded at 0.485

Entry `IGFFFACFFSVF` ; assay system Saccharomyces cerevisiae; protein stability index recorded at 0.43

Entry `CGPLLVTLVLSM` ; assay system Saccharomyces cerevisiae; protein stability index recorded at 0.476

Entry `IISICLYFLVRC` ; assay system Saccharomyces cerevisiae; protein stability index recorded at 0.327

---

tested on: Saccharomyces cerevisiae; assay: protein stability index of tFT-peptide fusion (C-terminal peptide) (PSI (0-1 scale)); higher = more stable (slower turnover); conditions: genetic background: das1 deletion; temperature: 30 C
Each item that follows carries a reported protein stability index.
Reply: number alone, nothing else.

Past entries and their recorded results:
SEQUENCE ENTRY	ASSAY READOUT	RECORDED VALUE
GQLIYQHIFILG	protein stability index	0.47
LFFVVFFLLFLL	protein stability index	0.36
DWTVSYLWVTAL	protein stability index	0.469
LCAFLKLFILII	protein stability index	0.181
LWGLVGVCLVLC	protein stability index	0.176

get_value(item= `IWYGLFWLRFWV` , readout=protein stability index) returns 0.497

get_value(item= `HCLGWCFSRLSS` , readout=protein stability index) returns 0.653

get_value(item= `CTESVYIIRFML` , readout=protein stability index) returns 0.568

get_value(item= `VVWFCGFFFVMV` , readout=protein stability index) returns 0.356

get_value(item= `FALVSLSFALVE` , readout=protein stability index) returns 0.306

get_value(item= `LFVPVFSFGFVC` , readout=protein stability index) returns 0.415

get_value(item= `RGLLLKILIASG` , readout=protein stability index) returns 0.305

get_value(item= `RLPFPVVLFLLF` , readout=protein stability index) returns 0.387

get_value(item= `VCQVCVCFLFWR` , readout=protein stability index) returns 0.145

get_value(item= `FLCVLYFFLCVE` , readout=protein stability index) returns 0.253

get_value(item= `GLSGFLLLIVLY` , readout=protein stability index) returns 0.239

get_value(item= `IISICLYFLVRC` , readout=protein stability index) returns 0.229

---

Each item that follows carries a reported protein stability index.
system: Saccharomyces cerevisiae; assay: protein stability index of tFT-peptide fusion (C-terminal peptide) (PSI (0-1 scale)); higher = more stable (slower turnover); conditions: genetic background: wild type; temperature: 30 C
Reply: number alone, nothing else.

SEQUENCE ENTRY	RECORDED VALUE
KRNCVVLLPMDR	0.682

get_value(item= `GVLSLFLLDTSQ` , readout=protein stability index) returns 0.738

get_value(item= `FFFVFLGLRSVF` , readout=protein stability index) returns 0.387

get_value(item= `YCFLSWVLMCCF` , readout=protein stability index) returns 0.406

get_value(item= `LSFFLSSALLHP` , readout=protein stability index) returns 0.7

---

system: Saccharomyces cerevisiae; test: protein stability index of tFT-peptide fusion (C-terminal peptide) (PSI (0-1 scale)); higher = more stable (slower turnover); conditions: genetic background: wild type; temperature: 30 C
Each item that follows carries a reported protein stability index.
Reply: number alone, nothing else.

Past entries and their recorded results:
SEQUENCE ENTRY	protein stability index
GLRLHVQCFGRV	0.699
VGWVLGCRGLGW	0.694
CAGGLFAVVTPS	0.682

get_value(item= `RPLPASTTLCVL` , readout=protein stability index) returns 0.689

get_value(item= `GTGPPPSPPSLP` , readout=protein stability index) returns 0.683

get_value(item= `FLIPPPFALPSL` , readout=protein stability index) returns 0.717

get_value(item= `AYTWVMTGAWLL` , readout=protein stability index) returns 0.586

get_value(item= `LGFYGSYGRWWV` , readout=protein stability index) returns 0.779

get_value(item= `WWGGGVRGGMGG` , readout=protein stability index) returns 0.758

---

test system: Saccharomyces cerevisiae; assay: protein stability index of tFT-peptide fusion (C-terminal peptide) (PSI (0-1 scale)); higher = more stable (slower turnover); conditions: genetic background: wild type; temperature: 30 C
Label true (1) when protein stability index is at or above 0.7; otherwise label false (0).

Look over these answered cases.
SEQUENCE ENTRY	DISCRETE LABEL
CTESVYIIRFML	false (0)
MIASGGGGEAAY	true (1)
AVEGVSEVSLSG	false (0)

In: Reported protein stability index at or above 0.7? `RPSTSRKVKIDV`
Out: false (0)

In: Reported protein stability index at or above 0.7? `SLSPPLLPPSPP`
Out: false (0)

In: Reported protein stability index at or above 0.7? `FHSLTDSSPPGL`
Out: false (0)

In: Reported protein stability index at or above 0.7? `CFNGRVGGGGMR`
Out: false (0)

In: Reported protein stability index at or above 0.7? `GCGAVEGFGVGW`
Out: false (0)

In: Reported protein stability index at or above 0.7? `EGEVGGRWCGRG`
Out: false (0)

In: Reported protein stability index at or above 0.7? `TSSTATWSYRNY`
Out: false (0)

In: Reported protein stability index at or above 0.7? `WAVLLQGSRDLW`
Out: true (1)

In: Reported protein stability index at or above 0.7? `GFISVGVYPVVR`
Out: false (0)

---

test system: Saccharomyces cerevisiae; experiment: protein stability index of tFT-peptide fusion (C-terminal peptide) (PSI (0-1 scale)); higher = more stable (slower turnover); details: genetic background: wild type; temperature: 30 C
ASSAY READOUT: protein stability index
Reply: number alone, nothing else.

Past entries and their recorded results:
SEQUENCE ENTRY	protein stability index
FLQHPPHVLHPY	0.701
TLCCLFPIPSSS	0.699
FCGACFRGDVLV	0.67

get_value(item= `GGGGGMEPGCGP` , readout=protein stability index) returns 0.682

get_value(item= `GIEAKPLEGKTQ` , readout=protein stability index) returns 0.703

get_value(item= `EGYGPSVRYRRS` , readout=protein stability index) returns 0.639

get_value(item= `GTSERKVLNRKR` , readout=protein stability index) returns 0.764

get_value(item= `PHVCPVLSAAGR` , readout=protein stability index) returns 0.629

get_value(item= `SPASPPLPAPPP` , readout=protein stability index) returns 0.68

get_value(item= `GIARRSHSNETV` , readout=protein stability index) returns 0.766

---

test system: Saccharomyces cerevisiae; assay: protein stability index of tFT-peptide fusion (C-terminal peptide) (PSI (0-1 scale)); higher = more stable (slower turnover); details: genetic background: wild type; temperature: 30 C
Each item that follows carries a reported protein stability index.

SEQUENCE ENTRY	RECORDED VALUE
HLGQPRPSCPLF	0.662
LLPPPPLPPLPL	0.796
PPSPVPPIWYLA	0.372

get_value(item= `SGILRSLAYPPD` , readout=protein stability index) returns 0.614

get_value(item= `SPPPFLLPRLFS` , readout=protein stability index) returns 0.639

get_value(item= `KDANACSCDATS` , readout=protein stability index) returns 0.677
